tested on: HS 578T breast; test: NCI tumour cell line growth inhibition, 48 h
MEASURED QUANTITY: TGI

Q: Item: Cc1ccc(C(=O)Nc2ccc(S(=O)(=O)O)c3cc(S(=O)(=O)O)cc(S(=O)(=O)O)c23)cc1NC(=O)c1cccc(NC(=O)Nc2cccc(C(=O)Nc3cc(C(=O)Nc4ccc(S(=O)(=O)O)c5cc(S(=O)(=O)O)cc(S(=O)(=O)O)c45)ccc3C)c2)c1 (tested in a mixture with another compound) Test system: HS 578T breast Read-out: TGI Value: ?
Ans: > 50 µM

Q: State its TGI on HS 578T breast: `Clc1nc(Cl)c(CBr)c(Cl)n1`
Ans: > 56.8 µM

Q: // map `CC(C)c1ccc(NC(=S)NC(=O)c2ccccc2)cc1` to recorded TGI (system: HS 578T breast)
Ans: > 100 µM

----------
system: RPMI-8226 leukemia; experiment: NCI tumour cell line growth inhibition, 48 h
Quick reference: TGI of the listed items.

As a guide, the following entries are already answered.
Q: Sample `Nc1nc(-c2cccc([N+](=O)[O-])c2)cc(-c2cc(-c3cccc([N+](=O)[O-])c3)nc(N)n2)n1` — what was its TGI?
Ans: > 100 µM

Q: Item under review: `O=[N+]([O-])c1ccc(Cl)cc1N/N=C/c1cccc2cccnc12` . Reported TGI?
Ans: > 100 µM

Q: For the compound NC1CC(=O)c2sccc21 (stereo unspecified) , what TGI is on record?
Ans: > 100 µM

Q: Look up TGI for this compound: CC(C)CN(CC(C)C)C(=O)C1CCCC[C@@H]1C(=O)O (stereo partly specified)
Ans: > 100 µM

Q: // lookup TGI for `Nn1c(Cc2ccccc2)n[nH]c1=O`
Ans: > 100 µM

Proceed to the following item.
Q: Can you look up the measured TGI of C#CC(O)/C=C/C(O)CCCC(O)CC#CC(O)C#CC(O)CCCC(O)/C=C/CCCC(=O)CCCCCCCCCCCCCCCC(O)C(O)C#CC(=O)O (stereo unspecified) for me?
Ans: > 50 µM

----------
tested on: SK-MEL-5 melanoma; assay: NCI tumour cell line growth inhibition, 48 h
MEASURED QUANTITY: TGI

Consider the worked cases shown below.
Q: Hello, I am looking for reported TGI with SK-MEL-5 melanoma for CCCCCCC(C)OC(=O)/C=C(\CC(=O)OC(C)CCCCCC)C(=O)OC(C)CCCCCC (centres undefined) . Could you help?
Ans: > 100 µM

Q: Under SK-MEL-5 melanoma: TGI value of `Cc1cc(=O)oc2cc(OS(C)(=O)=O)ccc12` ?
Ans: > 100 µM

Q: Recall the recorded TGI for `c1ccc(-c2cc(-c3cccs3)c(-c3cccs3)o2)cc1` with SK-MEL-5 melanoma and state it.
Ans: > 100 µM

Q: TGI of CC1(C)CC2(C)CC1CC2NC(=O)CCN1CCOCC1 (centres undefined) on SK-MEL-5 melanoma?
Ans: > 100 µM

Q: Lab request: please report TGI under test system SK-MEL-5 melanoma for `COc1ccc2cc(C(=O)NCCCNC(=O)c3ccc4cc(OC)ccc4c3)ccc2c1`
Ans: > 100 µM

Others:
Q: Record `COc1ccc(-c2c(N)[n+]([O-])c3ccccc3[n+]2[O-])cc1OC` : what is its TGI with SK-MEL-5 melanoma?
Ans: > 100 µM

Q: Form field: TGI recorded for `COc1ccc(/C=C/NC=O)cc1` with SK-MEL-5 melanoma (enter value)
Ans: > 100 µM

Q: // map `CC(C)OC(=O)[C@@H](O)[C@H](CO)C1=CC([Si](C)(C)c2ccccc2)=CON1` to recorded TGI (system: SK-MEL-5 melanoma)
Ans: > 100 µM

Q: Query the reported TGI for SK-MEL-5 melanoma; item: `COc1cc(/C=C2\C(=O)Nc3cccc(Cl)c32)cc(OC)c1OC`
Ans: > 100 µM

Q: Notebook: pull reported TGI for SK-MEL-5 melanoma, entry `CCOC(=O)CSc1[nH]c(NC(=S)Nc2ccccc2)c(C(N)=O)c1C(N)=O`
Ans: > 10 µM

Q: Query TGI on SK-MEL-5 melanoma for N#Cc1nc(CCC(c2nc(C#N)c(N)o2)N2C(=O)c3ccccc3C2=O)oc1N (centres undefined)
Ans: > 100 µM

Q: // fetch SK-MEL-5 melanoma TGI for OCC(O)C(O)C(O)/C=N/Nc1nc2ccccc2nc1-c1ccccc1 (centres undefined)
Ans: > 100 µM

Q: Record lookup: for SK-MEL-5 melanoma, what TGI belongs to `NC(=O)c1nnsc1NC=O` ?
Ans: > 100 µM

Q: Notebook entry, SK-MEL-5 melanoma assay: TGI of O=C(CC1C=CCS1(=O)=O)NCc1ccccc1 (centres undefined) = ?
Ans: > 100 µM

Q: I'm curious: which TGI was measured for CC(=O)N1c2ccccc2C(C)C1c1[nH]c2ccccc2c1C (centres undefined) tested on SK-MEL-5 melanoma?
Ans: 28.3 µM

Q: Provide value of TGI for this record tested with SK-MEL-5 melanoma: CC12CCC(C(Nc3ccccn3)C1=O)C2(C)C (centres undefined)
Ans: > 100 µM

Q: Quick check: TGI on SK-MEL-5 melanoma, item COC(=O)C1C(OCc2ccccc2)C2CCC1(OC)C=C2C (centres undefined) ?
Ans: > 100 µM

Q: Enter reported TGI observed with SK-MEL-5 melanoma for `COc1ccccc1NC(=O)O/N=C(/Cl)C(C)C`
Ans: 24.1 µM

Q: // fetch SK-MEL-5 melanoma TGI for `O=C1NN(c2ccccc2)C(=O)/C1=C/c1ccc(Br)o1`
Ans: 2.05 µM

Origin of the recorded values: PubChem BioAssay (NCI)
